// reported zone of inhibition at 75 µg/disc per item
Tested on: Bacillus subtilis
experiment_description: Antimicrobial activity against Bacillus subtilis assessed as zone of inhibition at 75 ug/well after 24 hrs by agar well diffusion method
Type: functional
condition_notes: read-out: DIZ

{"columns": ["compound", "result_units", "zone of inhibition at 75 µg/disc"],
 "data": [
  ["O=C(NS(=O)(=O)c1c(-c2ccccc2)noc1-c1ccc([N+](=O)[O-])cc1)c1ccc(Cl)s1", "mm", 39],
  ["Cc1ccc(-c2onc(-c3ccccc3)c2S(=O)(=O)NC(=O)c2ccc(Cl)s2)cc1", "mm", 23],
  ["Cc1ccc(/C=C/S(=O)(=O)NC(=O)c2cccs2)cc1", "mm", 15],
  ["O=C(NS(=O)(=O)C1C(c2ccccc2)=NOC1c1ccc([N+](=O)[O-])cc1)c1cccs1 (stereo not drawn)", "mm", 16],
  ["O=C(NS(=O)(=O)C1C(c2ccccc2)=NN(c2ccccc2)C1c1ccc([N+](=O)[O-])cc1)c1ccc(Cl)s1 (stereo not drawn)", "mm", 15],
  ["O=C(NS(=O)(=O)c1c(-c2ccccc2)nn(-c2ccccc2)c1-c1ccccc1)c1cccs1", "mm", 23],
  ["O=C(NS(=O)(=O)/C=C/c1ccc([N+](=O)[O-])cc1)c1ccc(Cl)s1", "mm", 34],
  ["Cc1ccc(/C=C/S(=O)(=O)NC(=O)c2ccc(Cl)s2)cc1", "mm", 19]
]}
